Measured Apoptotic Activity of individual entries
system: K562; assay: Percent apoptotic activity of compound in chronic myelogenous leukemia K562 cells at 10 uM for 16 h; assay type: functional, Homo sapiens
Express it in %; write the number only.

**Query** Would you kindly share the measured Apoptotic Activity for CCOC(=O)c1ccc2c(c1)OC(c1cccc3ccccc13)=C(OC(=O)N(C)C)C1=[N+]2C=CC1 ?
**Result** 50

**Query** Same question for CN(C)C(=O)OC1=C(c2ccc3ccccc3c2)Oc2ccccc2[N+]2=C1CC=C2 please.
**Result** 0

**Query** Same question for CC(=O)OC1=C(c2cccc3ccccc23)Sc2ccccc2[N+]2=C1CC=C2 please.
**Result** 41

**Query** Same question for CN(C)C(=O)OC1=C(c2cccc3ccccc23)Oc2cc(C(=O)O)ccc2-n2cccc21 please.
**Result** 0

**Query** Same question for CCCCCC(=O)OC1=C(c2cccc3ccccc23)Oc2ccccc2[N+]2=C1CC=C2 please.
**Result** 0

====

tested on: M109; assay: In vitro cytotoxic activity of compound against (M109) mouse lung carcinoma cells by sulforhodamine B (SRB) assay; type: functional, cell-based
measured-attribute: IC50 (nM)
Express it in nM; write the number only.

**Query** Would you kindly share the measured IC50 for CN(C)C(=O)OC1=C(c2cccc3ccccc23)Oc2ccccc2[N+]2=C1CC=C2 ?
**Result** 1800

====

Measured Apoptotic Activity of individual entries
system: HL-60; assay: Percent apoptotic activity of compound in human acute myelocytic leukemia HL-60 cells at 10 uM for 16 h; format: functional
Express it in %; write the number only.

{"structure-notation": "CCCCCC(=O)OC1=C(c2cccc3ccccc23)Oc2ccccc2[N+]2=C1CC=C2", "target-of-assay": "HL-60", "unit-of-measure": "%", "Apoptotic Activity": 0}
{"structure-notation": "CC(=O)OC1=C(c2cccc3ccccc23)Oc2ccccc2[N+]2=C1CC=C2", "target-of-assay": "HL-60", "unit-of-measure": "%", "Apoptotic Activity": 42}
{"structure-notation": "CCCCC(=O)OC1=C(c2cccc3ccccc23)Oc2ccccc2[N+]2=C1CC=C2", "target-of-assay": "HL-60", "unit-of-measure": "%", "Apoptotic Activity": 0}
{"structure-notation": "CN(C)C(=O)OC1=C(c2cccc3ccccc23)Sc2ccccc2[N+]2=C1CC=C2", "target-of-assay": "HL-60", "unit-of-measure": "%", "Apoptotic Activity": 40}

**Query** Would you kindly share the measured Apoptotic Activity for O=C(OC1=C(c2cccc3ccccc23)Sc2ccccc2[N+]2=C1CC=C2)c1ccncc1 ?
**Result** 55

**Query** Same question for CCN(CC)C(=O)OC1=C(c2cccc3ccccc23)Sc2ccccc2[N+]2=C1CC=C2 please.
**Result** 12

**Query** Same question for CC(=O)OC1=C(c2cccc3ccccc23)Sc2ccccc2[N+]2=C1CC=C2 please.
**Result** 39

**Query** Same question for COc1ccc(C2=C(OC(=O)c3ccncc3)C3=[N+](C=CC3)c3ccccc3S2)cc1 please.
**Result** 31

**Query** Same question for CN(C)C(=O)OC1=C(c2cccc3ccccc23)Oc2cc(C(=O)O)ccc2-n2cccc21 please.
**Result** 0

**Query** Same question for CC(=O)OC1=C(c2ccccc2)Oc2ccccc2[N+]2=C1CC=C2 please.
**Result** 0

====

tested on: K562; test: Percent apoptotic activity of compound in chronic myelogenous leukemia K562 cells at 10 uM for 16 h; type: functional, Homo sapiens
# note: boundary value 30% maps to Criterion not met; Apoptotic Activity below it maps to Criterion met

# count of solved cases: 6
{"structure-notation": "COc1ccc(C2=C(OC(=O)N(C)C)C3=[N+](C=CC3)c3ccccc3S2)cc1", "category-label": "Criterion met"}
{"structure-notation": "COc1ccc(C2=C(OC(=O)c3ccncc3)C3=[N+](C=CC3)c3ccccc3S2)cc1", "category-label": "Criterion not met"}
{"structure-notation": "CN(C)C(=O)OC1=C(c2cccc3ccccc23)Oc2ccccc2[N+]2=C1CC=C2", "category-label": "Criterion not met"}
{"structure-notation": "CCN(CC)C(=O)OC1=C(c2cccc3ccccc23)Sc2ccccc2[N+]2=C1CC=C2", "category-label": "Criterion met"}
{"structure-notation": "O=C(OC1=C(c2cccc3ccccc23)Sc2ccccc2[N+]2=C1CC=C2)c1ccncc1", "category-label": "Criterion met"}
{"structure-notation": "CN(C)C(=O)OC1=C(c2cccc3ccccc23)Sc2ccccc2[N+]2=C1CC=C2", "category-label": "Criterion not met"}

**Query** Is Apoptotic Activity of CC(=O)OC1=C(c2ccccc2)Oc2ccccc2[N+]2=C1CC=C2 strictly below 30%?
**Result** Criterion met

**Query** Same question for CCCCC(=O)OC1=C(c2cccc3ccccc23)Oc2ccccc2[N+]2=C1CC=C2 please.
**Result** Criterion met

**Query** Same question for CC(=O)OC1=C(c2cccc3ccccc23)Oc2ccccc2[N+]2=C1CC=C2 please.
**Result** Criterion not met
